Here, each record is paired with measured IC50 data.
# target_or_system: TrkA (Homo sapiens (Human))
# Sequence (P04629 33-796): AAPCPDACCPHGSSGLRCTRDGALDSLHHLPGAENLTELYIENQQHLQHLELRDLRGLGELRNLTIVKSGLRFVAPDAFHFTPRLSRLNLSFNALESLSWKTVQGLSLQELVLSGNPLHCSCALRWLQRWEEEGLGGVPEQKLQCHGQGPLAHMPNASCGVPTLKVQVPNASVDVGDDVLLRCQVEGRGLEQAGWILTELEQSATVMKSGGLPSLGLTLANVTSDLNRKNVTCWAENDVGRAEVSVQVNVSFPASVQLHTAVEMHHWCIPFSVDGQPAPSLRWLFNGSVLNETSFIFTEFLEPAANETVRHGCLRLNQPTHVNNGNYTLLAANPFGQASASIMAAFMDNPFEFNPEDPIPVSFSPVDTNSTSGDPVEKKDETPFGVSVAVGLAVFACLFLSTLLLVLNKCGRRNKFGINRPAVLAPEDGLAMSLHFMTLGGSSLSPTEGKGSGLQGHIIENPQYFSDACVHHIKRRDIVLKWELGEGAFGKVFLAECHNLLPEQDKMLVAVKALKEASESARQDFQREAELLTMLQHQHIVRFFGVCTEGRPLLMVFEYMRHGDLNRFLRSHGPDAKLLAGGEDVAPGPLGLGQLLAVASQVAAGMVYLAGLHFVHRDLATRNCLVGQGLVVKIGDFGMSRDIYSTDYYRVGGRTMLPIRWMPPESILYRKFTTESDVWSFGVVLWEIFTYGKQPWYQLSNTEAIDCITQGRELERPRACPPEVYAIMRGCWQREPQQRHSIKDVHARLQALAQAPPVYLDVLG
Where a name gives a salt, the structure may show the parent alone.

Please review the following examples before continuing.
COCCN1C[C@@H](NC(=O)Nc2c(C)c(OC[C@H](O)CO)nn2-c2ccccc2)[C@H](c2cc(F)c(F)c(F)c2)C1 ... < 100 nM
O=C(Nc1c2c(nn1-c1ccccc1)CCC2)N[C@@H]1CN(Cc2csnn2)C[C@H]1c1ccc(F)c(F)c1 ... < 100 nM
COCCN1C[C@@H](NC(=O)Nc2c(C(N)=O)c(C)nn2-c2ccccc2)[C@H](c2cc(F)cc(Cl)c2)C1 (relative stereo) ... < 100 nM
COCCN1C[C@@H](NC(=O)Nc2c(C)c(OCc3ccc(OC)cc3)nn2-c2ccccc2)[C@H](c2ccc(F)c(F)c2)C1 ... < 100 nM
COCCN1C[C@@H](NC(=O)Nc2cc(C3CCNCC3)nn2-c2ccccc2)[C@H](c2ccc(F)c(F)c2)C1 [Example 580, dihydrochloride] ... 100 to 1000 nM

Okay, next one:
Request: Provide the documented IC50 with TrkA (Homo sapiens (Human)) as the system for COCCN1C[C@@H](NC(=O)Nc2c(Br)c(C[C@@H](C)O)nn2-c2ccccc2)[C@H](c2ccc(F)c(F)c2)C1
Response: < 100 nM
